- Format: binding
- CONDITION NOTES: pH 5.0
Catalogue of compounds with associated Gibbs binding free energy ΔGx^0
EXPERIMENTAL READOUT: Gibbs binding free energy ΔGx^0 (kcal/mol)

>>> observed_value("CC[C@H](C)[C@H](NC(=O)[C@H](C)NC(=O)CNC(=O)[C@H](Cc1ccccc1)NC(=O)[C@H](CC(C)C)NC(=O)CNC(C)=O)C(=O)N[C@@H](C)C(=O)NCC(=O)N[C@@H](Cc1ccccc1)C(=O)N[C@H](C(=O)N[C@@H](CCC(=O)O)C(=O)NCC(=O)NCC(=O)N[C@@H](Cc1c[nH]c2ccccc12)C(=O)N[C@@H](CCC(N)=O)C(=O)NCC(=O)N[C@@H](CCSC)C(=O)N[C@H](C(=O)N[C@@H](CC(=O)O)C(=O)NCC(N)=O)C(C)C)[C@@H](C)CC [20Ac]")
-7.55
>>> observed_value("CC[C@H](C)[C@H](NC(=O)[C@H](C)NC(=O)CNC(=O)[C@H](Cc1ccccc1)NC(=O)[C@H](CC(C)C)NC(=O)CN)C(=O)N[C@@H](C)C(=O)NCC(=O)N[C@@H](Cc1ccccc1)C(=O)N[C@H](C(=O)N[C@@H](CCC(=O)O)C(=O)NCC(=O)NCC(=O)N[C@@H](Cc1c[nH]c2ccccc12)C(=O)N[C@@H](CCC(N)=O)C(=O)NCC(=O)N[C@@H](CCSC)C(=O)N[C@H](C(=O)N[C@@H](CC(=O)O)C(=O)NCC(N)=O)C(C)C)[C@@H](C)CC [20N+]")
-7.84
>>> observed_value("CC[C@H](C)[C@H](NC(=O)[C@H](C)NC(=O)CNC(=O)[C@H](Cc1ccccc1)NC(=O)[C@H](CC(C)C)NC(=O)CN)C(=O)N[C@@H](C)C(=O)NCC(=O)N[C@@H](Cc1ccccc1)C(=O)N[C@H](C(=O)N[C@@H](CCC(=O)O)C(=O)NCC(=O)NCC(=O)N[C@@H](Cc1c[nH]c2ccccc12)C(=O)N[C@@H](CCC(N)=O)C(=O)NCC(=O)N[C@@H](CCSC)C(=O)N[C@H](C(=O)N[C@@H](CC(=O)O)C(=O)NCC(=O)N[C@@H](Cc1c[nH]c2ccccc12)C(=O)N[C@@H](Cc1ccc(O)cc1)C(=O)NCC(N)=O)C(C)C)[C@@H](C)CC [23N+]")
-7.86

###

- Type: binding
- CONDITION NOTES: pH 7.4
EXPERIMENTAL READOUT: Gibbs binding free energy ΔGx^0 (kcal/mol)

>>> observed_value("CC[C@H](C)[C@H](NC(=O)[C@H](C)NC(=O)CNC(=O)[C@H](Cc1ccccc1)NC(=O)[C@H](CC(C)C)NC(=O)CNC(C)=O)C(=O)N[C@@H](C)C(=O)NCC(=O)N[C@@H](Cc1ccccc1)C(=O)N[C@H](C(=O)N[C@@H](CCC(=O)O)C(=O)NCC(=O)NCC(=O)N[C@@H](Cc1c[nH]c2ccccc12)C(=O)N[C@@H](CCC(N)=O)C(=O)NCC(=O)N[C@@H](CCSC)C(=O)N[C@H](C(=O)N[C@@H](CC(=O)O)C(=O)NCC(=O)N[C@@H](Cc1c[nH]c2ccccc12)C(=O)N[C@@H](Cc1ccc(O)cc1)C(=O)NCC(N)=O)C(C)C)[C@@H](C)CC [23Ac]")
-8.94
